# measurement.protocol: Induction of wild-type p21 promoter activation in mink Mv1Lu cells after 18 hrs by luciferase assay relative to basal level
# Format: functional, Neovison vison
Non-standard residues stand in square brackets, D forms with d. Residues, ends and D or L forms follow the SMILES beside them. Ahp(7-SS(2-pyridyl)) = N[C@@H](CCCCCSSc1ccccn1)C(=O)O; Aib = CC(C)(N)C(=O)O
Response field label: string, one of true (EC1000 strictly below 600 nM) or false.

Before answering, review these 5 worked examples.
Check if EC1000 falls below 600 nM for CC1(C)NC(=O)[C@H](CCCCCSSc2ccccn2)NC(=O)[C@H]2CCCN2C(=O)[C@H](c2ccccc2)NC1=O .
false

Check if EC1000 falls below 600 nM for C[C@@H]1NC(=O)[C@@]2(CCc3ccccc32)NC(=O)[C@H](CCCCCSSc2ccccn2)NC(=O)[C@H]2CCCN2C1=O .
true

Check if EC1000 falls below 600 nM for CC1(C)NC(=O)[C@H](CCCCCSSc2ccccn2)NC(=O)[C@H]2CCCN2C(=O)[C@H](CO)NC1=O .
true

Check if EC1000 falls below 600 nM for C[C@@H]1NC(=O)C(C)(C)NC(=O)[C@H](CCCCCSSc2ccccn2)NC(=O)[C@H]2Cc3ccccc3CN2C1=O .
true

Check if EC1000 falls below 600 nM for C[C@@H]1NC(=O)C2(Cc3ccccc3C2)NC(=O)[C@H](CCCCCSSc2ccccn2)NC(=O)[C@H]2CCCN2C1=O .
true

Further cases:
Check if EC1000 falls below 600 nM for C[C@@H]1NC(=O)C(C)(C)NC(=O)[C@H](CCCCCSSc2ccccn2)NC(=O)[C@H]2CCCN2C1=O .
false

Check if EC1000 falls below 600 nM for CC1(C)NC(=O)[C@H](CCCCCSSc2ccccn2)NC(=O)[C@H]2CCCN2C(=O)[C@H](CCc2ccccc2)NC1=O .
true

Check if EC1000 falls below 600 nM for CC1(C)NC(=O)[C@H](CCCCCSSc2ccccn2)NC(=O)[C@H]2CCCN2C(=O)[C@H](Cc2ccccc2)NC1=O (cyclo([Aib]F[dP][Ahp(7-SS(2-pyridyl))])) .
true

Check if EC1000 falls below 600 nM for C[C@@H]1NC(=O)[C@]2(CCc3ccccc32)NC(=O)[C@H](CCCCCSSc2ccccn2)NC(=O)[C@H]2CCCN2C1=O .
false

Check if EC1000 falls below 600 nM for C[C@@H]1NC(=O)[C@@](C)(Cc2ccccc2)NC(=O)[C@H](CCCCCSSc2ccccn2)NC(=O)[C@H]2CCCN2C1=O .
false

Check if EC1000 falls below 600 nM for C[C@@H]1NC(=O)[C@](C)(Cc2ccccc2)NC(=O)[C@H](CCCCCSSc2ccccn2)NC(=O)[C@H]2CCCN2C1=O .
true

Check if EC1000 falls below 600 nM for CC1(C)NC(=O)[C@H](CCCCCSSc2ccccn2)NC(=O)[C@H]2CCCN2C(=O)[C@H](COCc2ccccc2)NC1=O .
true

Check if EC1000 falls below 600 nM for CC1(C)NC(=O)[C@H](CCCCCSSc2ccccn2)NC(=O)[C@H]2CCCN2C(=O)[C@H](CCCc2ccccc2)NC1=O .
true
